Value source: ChEMBL document CHEMBL1124570

- ASSAY REMARKS: Dissociation constant at 37 degree Centigrade
- Format: physicochemical
METRIC NAME: pKa
# answer = number (no unit)

Prompt: Give reported pKa value for COc1ccc2[nH]c([S+]([O-])Cc3ncc(C)c(N(C)C)c3Cl)nc2c1 (configuration not stated)
Completion: 5.92

Prompt: Give reported pKa value for COc1ccc2[nH]c([S+]([O-])Cc3nccc(N(C)C)c3F)nc2c1 (configuration not stated)
Completion: 7.12

Prompt: Give reported pKa value for COc1ccc2[nH]c([S+]([O-])Cc3nccc(N4CCOCC4)c3F)nc2c1 (configuration not stated)
Completion: 5.89

Prompt: Give reported pKa value for COc1ccc2[nH]c([S+]([O-])Cc3cc(N4CCOCC4)c(F)cn3)nc2c1 (configuration not stated)
Completion: 5.72

Prompt: Give reported pKa value for COc1ccc2[nH]c([S+]([O-])Cc3nccc(N4CCCC4)c3Cl)nc2c1 (configuration not stated)
Completion: 7.58

Prompt: Give reported pKa value for COc1ccc2[nH]c([S+]([O-])Cc3nccc(N4CCOCC4)c3Cl)nc2c1 (configuration not stated)
Completion: 5.28

Prompt: Give reported pKa value for COc1ccc2[nH]c([S+]([O-])Cc3cc(N(C)C)c(Br)cn3)nc2c1 (configuration not stated)
Completion: 5.8

Prompt: Give reported pKa value for COc1ccc2[nH]c([S+]([O-])Cc3cc(N4CCCCC4)c(Br)cn3)nc2c1 (configuration not stated)
Completion: 5.4

Prompt: Give reported pKa value for COc1ccc2[nH]c([S+]([O-])Cc3ncc(C)c(N4CCOCC4)c3Cl)nc2c1 (configuration not stated)
Completion: 5.32

Prompt: Give reported pKa value for COc1ccc2[nH]c([S+]([O-])Cc3nccc(N4CCCCC4)c3Cl)nc2c1 (configuration not stated)
Completion: 5.95

Prompt: Give reported pKa value for COc1ccc2[nH]c([S+]([O-])Cc3cc(N4CCCC4)c(Br)cn3)nc2c1 (configuration not stated)
Completion: 6.92

Prompt: Give reported pKa value for COc1ccc2[nH]c([S+]([O-])Cc3cc(N(C)C)c(F)cn3)nc2c1 (configuration not stated)
Completion: 6.96

---

- ASSAY REMARKS: Partition coefficient at 37 degree Celsius at pH 7.4
- Format: physicochemical
- EXPERIMENTAL PARAMETERS: octanol/water
METRIC NAME: logD
# answer = number (no unit)

Prompt: Give reported logD value for COc1ccc2[nH]c([S+]([O-])Cc3nccc(N4CCOCC4)c3Cl)nc2c1 (stereo unspecified)
Completion: 1.81

---

- ASSAY REMARKS: Half-life at pH 7.4
- Type: ADME
- EXPERIMENTAL PARAMETERS: buffer
METRIC NAME: half-life (h)
Answer in h, number only, no unit symbol.

Prompt: Give reported half-life value for COc1ccc2[nH]c([S+]([O-])Cc3ncc(C)c(N(C)C)c3Cl)nc2c1 (stereo not drawn)
Completion: 432

Prompt: Give reported half-life value for COc1ccc2[nH]c([S+]([O-])Cc3nccc(N4CCCCC4)c3Cl)nc2c1 (stereo not drawn)
Completion: 175

Prompt: Give reported half-life value for COc1ccc2[nH]c([S+]([O-])Cc3cc(N4CCCC4)c(Br)cn3)nc2c1 (stereo not drawn)
Completion: 49

Prompt: Give reported half-life value for COc1ccc2[nH]c([S+]([O-])Cc3ncc(C)c(N4CCCCC4)c3Cl)nc2c1 (stereo not drawn)
Completion: 444

Prompt: Give reported half-life value for COc1ccc2[nH]c([S+]([O-])Cc3nccc(N4CCCCC4)c3Br)nc2c1 (stereo not drawn)
Completion: 300

Prompt: Give reported half-life value for COc1ccc2[nH]c([S+]([O-])Cc3cc(N4CCCCC4)c(Br)cn3)nc2c1 (stereo not drawn)
Completion: 864

Prompt: Give reported half-life value for COc1ccc2[nH]c([S+]([O-])Cc3nccc(N(C)C)c3Cl)nc2c1 (stereo not drawn)
Completion: 17

Prompt: Give reported half-life value for COc1ccc2[nH]c([S+]([O-])Cc3nccc(N4CCCC4)c3Cl)nc2c1 (stereo not drawn)
Completion: 36

Prompt: Give reported half-life value for COc1ccc2[nH]c([S+]([O-])Cc3cc(N(C)C)c(Cl)cn3)nc2c1 (stereo not drawn)
Completion: 96

Prompt: Give reported half-life value for COc1ccc2[nH]c([S+]([O-])Cc3ncc(C)c(N4CCCC4)c3Cl)nc2c1 (stereo not drawn)
Completion: 60

Prompt: Give reported half-life value for COc1ccc2[nH]c([S+]([O-])Cc3cc(N(C)C)c(F)cn3)nc2c1 (stereo not drawn)
Completion: 26

Prompt: Give reported half-life value for COc1ccc2[nH]c([S+]([O-])Cc3nccc(N4CCOCC4)c3F)nc2c1 (stereo not drawn)
Completion: 144

Prompt: Give reported half-life value for COc1ccc2[nH]c([S+]([O-])Cc3nccc(N4CCOCC4)c3Cl)nc2c1 (stereo not drawn)
Completion: 1300

Prompt: Give reported half-life value for COc1ccc2[nH]c([S+]([O-])Cc3cc(N(C)C)c(Br)cn3)nc2c1 (stereo not drawn)
Completion: 101

Prompt: Give reported half-life value for COc1ccc2[nH]c([S+]([O-])Cc3ncc(C)c(OC)c3C)nc2c1 (stereo not drawn) [OMEPRAZOLE]
Completion: 456

Prompt: Give reported half-life value for COc1ccc2[nH]c([S+]([O-])Cc3nccc(N(C)C)c3F)nc2c1 (stereo not drawn)
Completion: 11

Prompt: Give reported half-life value for COc1ccc2[nH]c([S+]([O-])Cc3cc(N4CCOCC4)c(F)cn3)nc2c1 (stereo not drawn)
Completion: 418

---

- ASSAY REMARKS: Partition coefficient at 37 degrees Celsius at pH 7.4
- Type: physicochemical
- EXPERIMENTAL PARAMETERS: octanol/water
METRIC NAME: logD
# answer = number (no unit)

Prompt: Give reported logD value for COc1ccc2[nH]c([S+]([O-])Cc3ncc(C)c(OC)c3C)nc2c1 (stereo unspecified)
Completion: 2.18

---

Provide the reported ED50 of each item.
- Test system: Canis familiaris
- ASSAY REMARKS: Inhibition of histamine-stimulated gastric acid secretion in conscious Heidenhain pouch dog after intravenous administration
- Type: functional
- EXPERIMENTAL PARAMETERS: Canis lupus familiaris, Stomach
Answer in µmol/kg, number only, no unit symbol.

Prompt: Give reported ED50 value for COc1ccc2[nH]c([S+]([O-])Cc3ncc(C)c(N4CCCC4)c3Cl)nc2c1 (stereo not drawn)
Completion: 0.57

Prompt: Give reported ED50 value for COc1ccc2[nH]c([S+]([O-])Cc3cc(N4CCOCC4)c(F)cn3)nc2c1 (stereo not drawn)
Completion: 5.07

Prompt: Give reported ED50 value for COc1ccc2[nH]c([S+]([O-])Cc3nccc(N4CCOCC4)c3Cl)nc2c1 (stereo not drawn)
Completion: 1.01

Prompt: Give reported ED50 value for COc1ccc2[nH]c([S+]([O-])Cc3cc(N(C)C)c(Cl)cn3)nc2c1 (stereo not drawn)
Completion: 0.77

Prompt: Give reported ED50 value for COc1ccc2[nH]c([S+]([O-])Cc3ncc(C)c(OC)c3C)nc2c1 (stereo not drawn)
Completion: 0.2

Prompt: Give reported ED50 value for COc1ccc2[nH]c([S+]([O-])Cc3cc(N4CCCCC4)c(Br)cn3)nc2c1 (stereo not drawn)
Completion: 2.94

Prompt: Give reported ED50 value for COc1ccc2[nH]c([S+]([O-])Cc3nccc(N(C)C)c3Cl)nc2c1 (stereo not drawn)
Completion: 0.26

Prompt: Give reported ED50 value for COc1ccc2[nH]c([S+]([O-])Cc3nccc(N4CCCCC4)c3Cl)nc2c1 (stereo not drawn)
Completion: 1.16

---

- System: Rattus norvegicus
- ASSAY REMARKS: Inhibition of histamine-stimulated gastric acid secretion in lumen perfused anesthetized rat after intraduodenal administration
- Type: functional
- EXPERIMENTAL PARAMETERS: Stomach
Threshold-based label: ED50 under 1 µmol/kg gives condition met, ED50 not under 1 µmol/kg gives condition not met.

Prompt: Say whether its ED50 is strictly beneath 1 µmol/kg. Entry: COc1ccc2[nH]c([S+]([O-])Cc3cc(N4CCOCC4)c(F)cn3)nc2c1 (stereo not given)
Completion: condition met

Prompt: Say whether its ED50 is strictly beneath 1 µmol/kg. Entry: COc1ccc2[nH]c([S+]([O-])Cc3nccc(N4CCOCC4)c3F)nc2c1 (stereo not given)
Completion: condition not met

Prompt: Say whether its ED50 is strictly beneath 1 µmol/kg. Entry: COc1ccc2[nH]c([S+]([O-])Cc3cc(N4CCCCC4)c(Br)cn3)nc2c1 (stereo not given)
Completion: condition not met

Prompt: Say whether its ED50 is strictly beneath 1 µmol/kg. Entry: COc1ccc2[nH]c([S+]([O-])Cc3ncc(C)c(N(C)C)c3Cl)nc2c1 (stereo not given)
Completion: condition not met

Prompt: Say whether its ED50 is strictly beneath 1 µmol/kg. Entry: COc1ccc2[nH]c([S+]([O-])Cc3ncc(C)c(N4CCCCC4)c3Cl)nc2c1 (stereo not given)
Completion: condition not met
